# ASSAY CONTEXT: human
Classify as follows. Reported in vivo MRT_(hr)_Human greater than or equal to 2 h: condition met. Reported in vivo MRT_(hr)_Human below: condition not met.

[[record]]
compound = "CC(C)=CCN1CCC2(C)c3cc(O)ccc3CC1C2C (centres unmarked)"
class_name = "condition met"

[[record]]
compound = "NCC1(CC(=O)O)CCCCC1"
class_name = "condition met"

[[record]]
compound = "CCN(C)C(=O)Oc1cccc([C@H](C)N(C)C)c1"
class_name = "condition not met"

[[record]]
compound = "CNC(=C[N+](=O)[O-])NCCSCc1ccc(CN(C)C)o1"
class_name = "condition met"


// next entry
Could you verify whether the entry CO/N=C(\C(=O)N[C@@H]1C(=O)N2C(C(=O)O)=CCS[C@H]12)c1csc(N)n1 shows in vivo MRT_(hr)_Human of no less than 2 h?
condition not met

----------
The entries below are paired with their reported in vivo MRT_(hr)_Human.
# ASSAY CONTEXT: human
Report as a plain number; the unit h is understood.

Example cases with answers are listed next.
[[record]]
compound = "Cc1[nH]cnc1CN1CCc2c(c3ccccc3n2C)C1=O [Alosetron]"
units_symbol = "h"
observed = 2.107

[[record]]
compound = "CC[C@]1(O)C[C@@H]2CN(CCc3c([nH]c4ccccc34)[C@@](C(=O)OC)(c3cc4c(cc3OC)N(C)[C@H]3[C@@](O)(C(=O)OC)[C@H](OC(C)=O)[C@]5(CC)C=CCN6CC[C@]43[C@@H]65)C2)C1 [Vinblastine]"
units_symbol = "h"
observed = 139.785

[[record]]
compound = "COc1cc([C@@H]2c3cc4c(cc3[C@@H](O[C@@H]3O[C@@H]5CO[C@@H](C)O[C@H]5[C@H](O)[C@H]3O)[C@H]3COC(=O)[C@H]23)OCO4)cc(OC)c1O [Etoposide]"
units_symbol = "h"
observed = 6.000

[[record]]
compound = "CO[C@@]1(NC(=O)C2SC(=C(C(N)=O)C(=O)O)S2)C(=O)N2C(C(=O)O)=C(CSc3nnnn3C)CS[C@@H]21 (stereo partly shown) [Cefotetan]"
units_symbol = "h"
observed = 5.159

[[record]]
compound = "CC(C)NCC(O)COc1cccc2ccccc12 (stereo not shown) [Propranolol]"
units_symbol = "h"
observed = 4.653

[[record]]
compound = "CC1COc2c(N3CCN(C)CC3)c(F)cc3c(=O)c(C(=O)O)cn1c23 (stereo not shown) [Ofloxacin]"
units_symbol = "h"
observed = 10.667


Now for another entry.
Consider the compound CCN(CC)CCNC(=O)c1cc(Cl)c(N)cc1OC [Metoclopramide] and give its measured in vivo MRT_(hr)_Human.
9.357

----------
# PROCEDURE TEXT: Measurement of Rb (blood-to-plasma concentration ratio) in spiked human blood, LC-MS/MS
# Type: in vitro ADME
# ASSAY CONTEXT: heparinized human whole blood, footnote a: Rb is our experimental data, read-out: Rb_Human (blood-to-plasma concentration ratio)
MEASURED QUANTITY: blood plasma ratio at 30 min, 5 µM
Answer with a bare number; do not write a unit.

Example cases with answers are listed next.
[[record]]
compound = "COc1cccc2c1C(=O)c1c(O)c3c(c(O)c1C2=O)C[C@@](O)(C(=O)CO)C[C@@H]3O[C@H]1C[C@H](N)[C@H](O)[C@H](C)O1"
observed = 1.56

[[record]]
compound = "CN(Cc1cnc2nc(N)nc(N)c2n1)c1ccc(C(=O)N[C@@H](CCC(=O)O)C(=O)O)cc1 [Methotrexate]"
observed = 0.59

[[record]]
compound = "CO/N=C(\\C(=O)N[C@@H]1C(=O)N2C(C(=O)[O-])=C(C[n+]3ccn4ncccc43)CS[C@H]12)c1nsc(N)n1"
observed = 0.61


Consider the compound NC(N)=Nc1nc(CSCCC(N)=NS(N)(=O)=O)cs1 and give its measured blood plasma ratio at 30 min, 5 µM.
0.74

Consider the compound CCCCN1CCCCC1C(=O)Nc1c(C)cccc1C (stereo not shown) and give its measured blood plasma ratio at 30 min, 5 µM.
0.57

Consider the compound CCN1CCN(C(=O)N[C@@H](C(=O)N[C@@H]2C(=O)N3C(C(=O)O)=C(CSc4nnnn4C)CS[C@H]23)c2ccc(O)cc2)C(=O)C1=O and give its measured blood plasma ratio at 30 min, 5 µM.
0.55

Consider the compound CCc1c2c(nc3ccc(OC(=O)N4CCC(N5CCCCC5)CC4)cc13)-c1cc3c(c(=O)n1C2)COC(=O)[C@]3(O)CC and give its measured blood plasma ratio at 30 min, 5 µM.
0.98
